meta.source: patent US20090143279A1

- Test system: cellular dehydrogenase activity
- condition parameters: composite Z-score vs mock-treated (DMSO) wells; Conc 20 μM
We label by threshold. Values of MTT strictly beneath -1 are condition met. Values of -1 and up are condition not met.

# molecule, class name
records = [
    ("CC(=O)O[C@@H]1CC2C(C)(C)C=CC(=O)[C@]2(C)C2CC[C@@]3(C)[C@H](c4ccoc4)OC(=O)C4OC43[C@@]21C (stereo partly drawn) [isogedunin]", "condition met"),
]

Problem: For the molecule CC1(C)C(=O)C=C[C@]2(C)[C@H]3CC[C@@]4(C)[C@H](c5ccoc5)OC(=O)[C@H]5O[C@]54[C@]3(C)[C@H](O)C[C@@H]12 [deacetylgedunin] , is MTT under -1?
condition not met

Given COc1ccc([C@H]2Oc3c(I)c(OC)cc(OC)c3C[C@@H]2O)cc1OC [8-iodocatechin tetramethyl ether, reference compound] , is recorded MTT strictly lower than -1?
condition met

I wonder whether COc1cccc2c1CCC1=CC(=O)CCC12C (stereo not drawn) has MTT below -1. Can you tell?
condition met

Lab log: compare recorded MTT with -1; is it strictly lower for COc1ccc2c(c1)O[C@@H]1COc3cc(OC)c(OC)cc3[C@@H]1C2=O [mundoserone, reference compound] ?
condition met

Find out if reported MTT for COc1cc2c(cc1OC)[C@@H]1C(=O)c3ccc(O)c(CC=C(C)C)c3O[C@@H]1CO2 [rotenonic acid, reference compound] is less than -1
condition not met

====

- System: C2C12 myotubes
- condition parameters: Conc 20 μM; normalized score vs mock-treated (DMSO) wells
result type: Viability (composite Z-score)
Answers are plain numbers.

Sample answers from the record:
# compound, Viability (composite Z-score)
records = [
    ("COc1cc(OC)c2c(c1)OC(c1ccccc1)CC2=O (stereo not drawn)", 0.220),
    ("CC(=O)O[C@H]1CC[C@]2(C)C(C[C@H](OC(C)=O)[C@]3(C)C4=CC(=O)OC(c5ccoc5)[C@@]4(C)CCC23)C1(C)C (stereo partly drawn)", "−0.292"),
    ("O=C(O[C@@H]1Cc2c(O)cc(O)cc2O[C@@H]1c1cc(O)c(O)c(O)c1-c1c([C@H]2Oc3cc(O)cc(O)c3C[C@H]2O)cc(O)c(O)c1O)c1cc(O)c(O)c(O)c1 [2′,2′-bisepigallocatechin monogallate]", 0.442),
    ("O=C(/C=C/c1ccccc1)c1ccc(O[C@@H]2O[C@H](CO)[C@@H](O)[C@H](O)[C@H]2O)cc1O [2′,4′-dihydroxychalcone 4′-glucoside]", 0.556),
    ("CC1(C)C2C[C@@H](O)[C@]3(C)C(CC[C@@]4(C)[C@H](c5ccoc5)OC(=O)C5OC543)[C@@]2(C)C(=O)C[C@H]1O (stereo partly drawn)", "−0.413"),
]

Dear colleague, could you please provide Viability (composite Z-score) for the compounds listed below?
1. O=C(O)c1nc2cc(Cl)c(Cl)cc2nc1O
2. CO[C@H]1C[C@H](O[C@H]2CC[C@]3(C=O)[C@H]4CC[C@]5(C)[C@@H](C6=CC(=O)OC6)CC[C@]5(O)[C@@H]4CC[C@]3(O)C2)O[C@H](C)[C@H]1O
3. CC(C)CCC[C@@H](C)[C@H]1CC[C@H]2[C@@H]3C[C@@H](O)[C@@]4(O)C[C@@H](O)CC[C@]4(C)[C@H]3CC[C@]12C
4. CCC(C)C(OC(C)=O)C(=O)O[C@H]1[C@H](O)[C@@H]2[C@@]3(C)C=CC(=O)C(C)(C)[C@@H]3C[C@@H](OC(=O)C(O)C(C)C)[C@@]2(C)[C@@]23O[C@@H]2C[C@@H](c2ccoc2)[C@]13C (stereo partly drawn) [heudelottin C, reference compound]
5. Cc1c(O)c(C(=O)CC(C)C)c2oc3c(C(=O)CC(C)C)c(O)c(C)c(O)c3c2c1O
6. CC(C)c1ccc2c(c1)CCC1[C@](C)(CN)CCC[C@]21C.O=S(=O)(O)O (stereo partly drawn) [18-aminoabieta-8,11,13-triene sulfate]

0.109
−1.155
−0.869
−0.829
−0.636
−0.143

Please supply the value of reported Viability (composite Z-score) for the item C/C1=C\CC(C)(C)/C=C/CC2(C)OC2CC1 (stereo not drawn)
1.157

====

- Test system: nuOXPHOS transcripts
- Assay type: cell-based, mouse
- condition parameters: 20 μM; composite Z-score vs DMSO
Short version: nucOX at least 0.3 is met, less is not met.

Completed entries (count: 5):
# compound, class name
records = [
    ("CCCCN1CCCCC1C(=O)Nc1c(C)cccc1C (stereo not drawn)", "met"),
    ("C[N+](C)(C)CCOC(N)=O", "not met"),
    ("COc1cc2ccc(=O)oc2cc1O", "met"),
    ("Cc1cc(N)c2ccccc2[n+]1CCCCCCCCCC[n+]1c(C)cc(N)c2ccccc21", "not met"),
    ("CCN(CC)CCNC(=O)COc1ccc(OC)cc1 [mefexamide]", "not met"),
]

Next item in the queue.
Please check the record "CN(C)c1nc(N(C)C)nc(N(C)C)n1" and state if its nucOX is at or above 0.3.
met

====

- Tested on: mitochondrial membrane potential
- Format: cell-based, mouse
- condition parameters: composite Z-score vs mock-treated (DMSO) wells; Conc 20 μM
Provide the recorded ΔΨm for the entries that follow.
Answers are plain numbers.

Check out these entries, answers already filled in.
# molecule, result type, recorded result
data = [
    ("COC(=O)c1cccc2cc(OC)c(OC)c(OC)c2c1=O", "ΔΨm", "−0.254"),
    ("C=CC(C1=CC(=O)C(OC)=CC1=O)c1ccc(OC)cc1 (stereo not shown) [4,4′-dimethoxydalbergione]", "ΔΨm", "−0.993"),
    ("Cc1cc(=O)c2c(O)c(C)c(O)cc2o1 [eugenitol]", "ΔΨm", "−0.541"),
]

Note: attention shifts to another entry.
Read the entry COC(=O)C[C@H]1C2(C)CC34OC5(C)O[C@@]6([C@H](OC)C(OC(=O)C(C)C)[C@]7(C)C(/C(=C(/OC)C(C)C)C(=O)O[C@H]7c7ccoc7)[C@@]6(O5)[C@H](OC)[C@@]3(OC)C2OC(C)=O)[C@]14C (stereo partly shown) [chukrasin methyl ether] and write its reported ΔΨm.
−1.084

====

- Test system: OXPHOS gene expression
- Assay type: cell-based, mouse
- condition parameters: composite Z-score vs DMSO wells; Conc 20 μM
So I've got a bunch of compounds here, and I need their GE-HTS values.

# compound, GE-HTS
rows = [
    ("CCCOc1ccccc1-c1nc2nn[nH]c2c(=O)[nH]1", 0.076),
    ("O=C(O)c1ccc(S(=O)(=O)N(Cl)Cl)cc1", 0.565),
    ("O=c1cc(-c2ccccc2)oc2cc(O)cc(O)c12", "−0.137"),
]

Below is a list of compounds. For each, state its recorded GE-HTS.
1. Cc1cc(NC(=O)C2=C(O)c3ccccc3S(=O)(=O)N2C)no1
2. CO[C@H]1[C@H](O)[C@H](O[C@H]2CC[C@@]3(C=O)[C@H](CC[C@@H]4[C@@H]3CC[C@]3(C)[C@@H](C5=CC(=O)OC5)CC[C@]43O)C2)O[C@@H](C)[C@@H]1O [peruvoside]

1: −0.423; 2: 0.328

====

- Tested on: C2C12 myotubes
- condition parameters: composite Z-score vs mock-treated (DMSO) wells; concentration of each compound in μM
result type: Viability
Numbers only.

Consider the following illustrative entries.
# compound, Viability
data = [
    ("c1ccc2c3c([nH]c2c1)[C@H]1[C@H]2CC[C@H]([C@@H]4CCCN[C@@H]42)N1CC3", "−0.068"),
    ("COc1ccc(-c2cc(=O)c3c(OC)cc(OC)c(-c4cc(-c5cc(=O)c6c(OC)cc(OC)cc6o5)ccc4OC)c3o2)cc1", "−0.003"),
    ("COc1cc2occ(-c3cc4c(cc3OC)OCO4)c(=O)c2cc1OC", "−0.401"),
]

Consider the compound CN[C@H]1C[C@@H](N)[C@H](O)[C@@H](O[C@@H]2O[C@H](CO)[C@H](O)[C@@H]3OC4(O[C@H]23)O[C@H]([C@@H](N)CO)[C@H](O)[C@H](O)[C@H]4O)[C@@H]1O (stereo partly shown) and give its recorded Viability.
−1.526

====

- Tested on: mitochondrial membrane potential
- Format: cell-based, mouse
- condition parameters: composite Z-score vs DMSO; Conc 20 μM
Structures can show the parent of a compound that is named as a salt.
result type: ΔΨm
Numbers only.

These recorded examples may help you get a feel for the data.
# molecule, ΔΨm
measured = [
    ("NCC[C@H](O)C(=O)N[C@@H]1C[C@H](N)[C@@H](O[C@H]2O[C@H](CN)[C@@H](O)[C@H](O)[C@H]2O)[C@H](O)[C@H]1O[C@H]1O[C@H](CO)[C@@H](O)[C@H](N)[C@H]1O [amikacin]", "−0.116"),
    ("COc1ccc2cc([C@H](C)CO)ccc2c1 [naproxol]", "−0.500"),
    ("CCN(CCCc1ccccc1)CCCc1ccccc1 [alverine citrate]", 0.433),
    ("COC(=O)c1c(C)c2c(c(C)c1O)OC(=O)c1c(C)c(Cl)c(O)c(Cl)c1O2 [leoidin]", "−1.352"),
    ("COc1ccc(C[C@H](N)C(=O)N[C@H]2[C@@H](O)[C@H](n3cnc4c(N(C)C)ncnc43)O[C@@H]2CO)cc1 [Puromycin, reference compound]", "−3.989"),
]

Answer for every listed entry: what is its ΔΨm? The entries follow.
1. C=C1CCC2C(CC2(C)C)C(=O)CCC1O (stereo not shown) [isokobusone]
2. COc1cc2c(c(OC)c1OC)-c1ccc(=O)c(O)cc1[C@@H](NC(C)=O)CC2 [colchiceine]
3. O=C(C=C(O)c1ccccc1)c1ccccc1O [2′,beta-dihydroxychalcone]

1. −0.283
2. −0.812
3. −0.044

Each molecule below has a recorded value; state its ΔΨm.
1. C[C@]12CC[C@H](O)C[C@@H]1CC[C@@H]1[C@@H]2CC[C@]2(C)[C@@H](O)CC[C@@H]12 [5alpha-androstan-3beta,17beta-diol]
2. NC[C@@H]1O[C@H](O[C@H]2[C@@H](O)[C@H](O[C@@H]3[C@@H](O)[C@H](N)C[C@H](N)[C@H]3O[C@H]3O[C@H](CN)[C@@H](O)[C@H](O)[C@H]3N)O[C@@H]2CO)[C@H](N)[C@@H](O)[C@@H]1O [neomycin]
3. COC1=CC(=O)C(O)=C/C1=C\C=C\c1ccccc1 [obtusaquinone]
4. C[C@@]12CCc3occc3[C@H]1CC[C@@]13C[C@@H](CC[C@H]12)[C@@](O)(CO)C3 [cafestol]
5. C[C@@H]1C[C@H]2CC(=O)[C@H]3CCCN4CCC[C@H]2[C@]34C1 [lycopodine]
6. COc1cc(C(C)=O)cc(OC)c1O [acetosyringone]
7. CN1CCc2cc3c(cc2[C@H]1[C@@H]1OC(=O)c2c1ccc1c2OCO1)OCO3 [(+)-bicuculline]
8. COc1cc2c(cc1OC)[C@@H]1C(=O)c3ccc4c(c3O[C@@H]1CO2)CC(C(C)C)O4 (stereo partly drawn) [beta-dihydrorotenone, reference compound]

1. −1.116
2. −0.599
3. −3.829
4. 1.283
5. −0.239
6. −0.370
7. −0.945
8. 1.079
